Target: UniProt:P36888
Sequence (P36888 27-993): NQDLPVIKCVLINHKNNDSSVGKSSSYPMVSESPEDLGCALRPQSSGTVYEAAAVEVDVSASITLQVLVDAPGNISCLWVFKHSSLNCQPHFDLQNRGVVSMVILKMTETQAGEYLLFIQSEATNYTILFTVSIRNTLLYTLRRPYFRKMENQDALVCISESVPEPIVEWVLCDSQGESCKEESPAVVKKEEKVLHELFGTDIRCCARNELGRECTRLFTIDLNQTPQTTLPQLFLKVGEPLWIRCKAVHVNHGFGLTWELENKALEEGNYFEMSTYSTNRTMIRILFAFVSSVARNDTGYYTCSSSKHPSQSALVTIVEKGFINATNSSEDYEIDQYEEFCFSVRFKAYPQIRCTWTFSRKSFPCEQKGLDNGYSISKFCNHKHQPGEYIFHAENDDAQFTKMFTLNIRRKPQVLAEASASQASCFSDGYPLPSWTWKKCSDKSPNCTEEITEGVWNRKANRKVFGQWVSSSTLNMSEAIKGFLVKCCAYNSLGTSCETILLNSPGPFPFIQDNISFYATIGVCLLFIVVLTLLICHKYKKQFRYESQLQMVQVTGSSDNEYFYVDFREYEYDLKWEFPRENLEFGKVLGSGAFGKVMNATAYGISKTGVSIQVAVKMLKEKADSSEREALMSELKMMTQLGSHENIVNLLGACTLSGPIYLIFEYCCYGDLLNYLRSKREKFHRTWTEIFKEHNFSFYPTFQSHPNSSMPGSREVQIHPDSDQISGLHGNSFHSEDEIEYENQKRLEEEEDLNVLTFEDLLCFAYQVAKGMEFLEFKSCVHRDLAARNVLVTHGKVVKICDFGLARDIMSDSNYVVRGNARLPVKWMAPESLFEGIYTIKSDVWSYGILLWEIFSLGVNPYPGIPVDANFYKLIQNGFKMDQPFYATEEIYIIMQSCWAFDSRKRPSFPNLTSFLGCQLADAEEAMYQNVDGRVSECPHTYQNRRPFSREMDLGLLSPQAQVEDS
Protocol summary: RBC HotSpot Kinase Assay, FLT3
Assay type: biochemical
Set-up: purchased Reaction Biology (RBC HotSpot)
Assay setup: isolated kinase enzyme, 33P-ATP, P81 filter-binding
Property measured: IC50

Consider the reported IC50 for these compounds:
{"columns": ["Compound", "Target", "Observed measurement"],
 "data": [
  ["COc1cc2ncc(-c3nc(N[C@@H]4CCCNC4)ncc3F)n2nc1C1CC(C)(C)C1 [Compound 56a]", "UniProt:P36888", "< 0.5 nM"],
  ["COc1cc2ncc(-c3nc(N[C@H]4CNC[C@@H]4F)ncc3F)n2nc1N1CCOCC1 [Compound 119a]", "UniProt:P36888", "< 0.5 nM"]
]}

Query block: # lookup: IC50 of CC(O)(c1ccc2ncc(-c3ccnc(N[C@H]4CNC[C@@H]4F)n3)n2c1)C(F)(F)F (single isomer, unassigned) [Compound 26a]
Result block: < 0.5 nM

* * *

Target: FLT3 (Homo sapiens)
Sequence (P36888 27-993): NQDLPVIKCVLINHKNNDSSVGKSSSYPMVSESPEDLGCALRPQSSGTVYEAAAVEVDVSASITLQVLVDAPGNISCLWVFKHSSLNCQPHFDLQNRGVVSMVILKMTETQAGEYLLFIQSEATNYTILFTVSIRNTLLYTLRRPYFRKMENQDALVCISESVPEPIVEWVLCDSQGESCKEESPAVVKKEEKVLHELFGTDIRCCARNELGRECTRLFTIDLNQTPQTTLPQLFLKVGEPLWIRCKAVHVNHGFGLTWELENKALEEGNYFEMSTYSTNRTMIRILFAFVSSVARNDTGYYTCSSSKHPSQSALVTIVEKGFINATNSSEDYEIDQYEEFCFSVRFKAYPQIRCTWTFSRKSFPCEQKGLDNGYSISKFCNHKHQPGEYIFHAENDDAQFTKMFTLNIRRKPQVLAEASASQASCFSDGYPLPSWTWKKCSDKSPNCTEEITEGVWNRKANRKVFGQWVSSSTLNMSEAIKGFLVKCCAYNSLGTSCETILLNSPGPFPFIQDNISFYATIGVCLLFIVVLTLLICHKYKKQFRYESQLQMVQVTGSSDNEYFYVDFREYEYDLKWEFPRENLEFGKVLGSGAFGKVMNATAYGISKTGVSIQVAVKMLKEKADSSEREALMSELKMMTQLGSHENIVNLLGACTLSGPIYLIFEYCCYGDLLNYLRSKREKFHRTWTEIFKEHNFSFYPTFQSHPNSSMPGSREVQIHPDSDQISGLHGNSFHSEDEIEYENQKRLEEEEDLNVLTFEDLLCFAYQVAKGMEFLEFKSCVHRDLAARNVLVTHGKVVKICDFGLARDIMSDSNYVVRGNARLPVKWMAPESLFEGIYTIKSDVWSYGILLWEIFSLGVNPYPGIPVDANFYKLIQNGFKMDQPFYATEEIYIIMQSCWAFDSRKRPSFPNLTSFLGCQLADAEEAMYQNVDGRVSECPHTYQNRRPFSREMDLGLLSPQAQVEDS
Protocol summary: RBC HotSpot Kinase Assay, FLT3
Format: biochemical
Set-up: purchased Reaction Biology (RBC HotSpot)
Assay setup: isolated kinase enzyme, 33P-ATP, P81 filter-binding
Text: This assay uses the isolated kinase enzyme. […] Unlike kinase binding assays that measure competition for ATP, the HotSpot Kinase Assay is a functional assay that measures catalytic activity; as such it measures relative functional potency regardless of the mechanism of enzyme inhibition. This assay uses the form of the various enzymes that are easiest to express, which may not necessarily be the form of the enzyme that exist in the cell. […]
Property measured: IC50

# example entries with known answers
{"columns": ["Compound", "IC50"],
 "data": [
  ["COc1cc2ncc(-c3nc(N[C@@H]4CCCNC4)ncc3F)n2nc1C1CCC1 [Compound 53a]", "< 500 pM"],
  ["COc1cc2ncc(-c3nc(N[C@H]4CNCC[C@@H]4F)ncc3F)n2nc1N1CCS(=O)(=O)CC1 [Compound 122a]", "< 500 pM"]
]}

Next compound, please.
Query block: Need IC50 of COc1cc2ncc(-c3ccnc(N[C@H]4CNC[C@@H]4F)n3)n2nc1C12CC(C1)C2 [Compound 89a] , thanks.
Result block: < 500 pM

* * *

Target: IRAK4 (Homo sapiens, UniProt Q9NWZ3)
Sequence (Q9NWZ3 whole entry): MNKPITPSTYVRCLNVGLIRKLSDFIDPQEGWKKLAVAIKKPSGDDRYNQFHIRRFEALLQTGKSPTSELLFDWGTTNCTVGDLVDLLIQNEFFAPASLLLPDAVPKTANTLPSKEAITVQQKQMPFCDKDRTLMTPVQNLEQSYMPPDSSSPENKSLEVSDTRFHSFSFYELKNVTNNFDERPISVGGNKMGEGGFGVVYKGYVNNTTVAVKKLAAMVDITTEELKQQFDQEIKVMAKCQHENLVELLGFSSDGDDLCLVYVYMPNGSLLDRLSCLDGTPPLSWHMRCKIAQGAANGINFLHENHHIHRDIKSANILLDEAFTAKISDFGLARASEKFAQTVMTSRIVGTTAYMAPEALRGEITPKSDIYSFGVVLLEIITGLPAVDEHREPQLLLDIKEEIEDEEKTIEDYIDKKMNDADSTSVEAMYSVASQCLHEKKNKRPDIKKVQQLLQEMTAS
Protocol summary: RBC HotSpot Kinase Assay, IRAK4
Type: biochemical
Set-up: purchased Reaction Biology (RBC HotSpot)
Assay setup: isolated kinase enzyme, 33P-ATP, P81 filter-binding
Property measured: pIC50
Numbers only, as −log10 of the molar value.

Previously resolved entries follow.
{"columns": ["Compound", "Target", "pIC50"],
 "data": [
  ["CC(O)(c1ccc2ncc(-c3cncc(N[C@H]4CNCC[C@@H]4F)n3)n2c1)C(F)(F)F (single isomer, unassigned) [Compound 33a]", "IRAK4 (Homo sapiens, UniProt Q9NWZ3)", 9.10],
  ["COc1cc2ncc(-c3ccnc(N[C@H]4CNCC[C@@H]4F)n3)n2nc1C1CC(C)(C)C1 [Compound 82a]", "IRAK4 (Homo sapiens, UniProt Q9NWZ3)", 7.35],
  ["F[C@H]1CNC[C@@H]1Nc1cncc(-c2cnc3cc(OC4CC4)c(C4CC4)nn23)n1 [Compound 14a]", "IRAK4 (Homo sapiens, UniProt Q9NWZ3)", 7.80],
  ["COc1cc2ncc(-c3ccnc(N[C@H]4CNCC[C@@H]4F)n3)n2nc1C1CCCCC1 [Compound 88a]", "IRAK4 (Homo sapiens, UniProt Q9NWZ3)", 8.40],
  ["CC(O)(c1cn2c(-c3nc(N[C@H]4CNCC[C@@H]4F)ncc3F)cnc2cn1)C(F)(F)F (single isomer, unassigned) [Compound 133a]", "IRAK4 (Homo sapiens, UniProt Q9NWZ3)", 7.82],
  ["COc1cc2ncc(-c3nc(N[C@@H]4CCCNC4)ncc3F)n2nc1C1CC(C)(C)C1 [Compound 56a]", "IRAK4 (Homo sapiens, UniProt Q9NWZ3)", 8.70]
]}

Each compound below has a reported value. Please supply its pIC50.
1. COc1cc2ncc(-c3nc(N[C@H]4CNCC[C@@H]4F)ncc3F)n2nc1C1CC2(CCC2)C1 [Compound 60a]
2. CC(O)(c1ccc2ncc(-c3cncc(N[C@H]4CNC[C@@H]4F)n3)n2c1)C(F)(F)F (single isomer, unassigned) [Compound 30a]
3. CC(O)(c1ccc2ncc(-c3cncc(N[C@H]4CNC[C@@H]4F)n3)n2c1)C(F)(F)F (single isomer, unassigned) [Compound 32a]
4. CC(C)(O)c1ccc2ncc(-c3nc(N[C@H]4CNC[C@@H]4F)ncc3F)n2c1 [Compound 47a]
5. FC(F)COc1cc2ncc(-c3ccnc(N[C@H]4CNC[C@@H]4F)n3)n2nc1C1CC1

Result block:
[8.10, 8.30, 9.00, 9.00, 9.05]

Provide pIC50 for all items below, preserving their order.
1. CC(O)(c1ccc2ncc(-c3ccnc(N[C@@H]4CCCNC4)n3)n2c1)C(F)(F)F (single isomer, unassigned) [Compound 23a]
2. COc1cc2ncc(-c3nc(N[C@H]4CNC[C@@H]4F)ncc3Cl)n2nc1C1CC1 [Compound 101a]
3. CC(C)(O)c1cn2c(-c3nc(N[C@H]4CNCC[C@@H]4F)ncc3F)cnc2cn1 [Compound 100a]
4. COc1cc2ncc(-c3ccnc(N[C@H]4CNC[C@@H]4F)n3)n2nc1C1CC(F)(F)C1 [Compound 20a]
5. COc1cc2ncc(-c3nc(N[C@H]4CNC[C@@H]4F)ncc3F)n2nc1C1CC(C)(C)C1 [Compound 55a]
6. COc1cc2ncc(-c3ccnc(N[C@H]4CNC[C@@H]4F)n3)n2nc1C1CCCCC1 [Compound 86a]
7. COc1cc2ncc(-c3ccnc(N[C@H]4CNC[C@@H]4F)n3)n2nc1C1CCCC1 [Compound 83a]

Result block:
1: 9.10; 2: 9.00; 3: 8.70; 4: 7.92; 5: 8.70; 6: 9.00; 7: 9.22

Query block: Give the measured pIC50 of FC(F)COc1cc2ncc(-c3cncc(N[C@H]4CNC[C@@H]4F)n3)n2nc1C1CC1 .
Result block: 8.70
